# Experimental target: KRasG12C (Homo sapiens, UniProt P01116, G12C)
# Construct: biotin (biotinylated); made in house
# Method description: KRasG12C Mass Spectrometry adducting assay
# Format: binding
# Setup conditions: 10 μM test compound, 4 μM KRasG12C, 4 hours reaction; single experiment or average of two or more
Assay endpoint: KRasG12C M.S. Binding Mean adduct % (%)

| Molecule | Assay endpoint | Assay value |
| --- | --- | --- |
| C=CC(=O)N1CCN2c3c(cnc4c(C)c(-c5c(O)cccc5F)c(Cl)cc34)OC[C@H]2C1 (single isomer, unassigned) [Compound 39] | KRasG12C M.S. Binding Mean adduct % | 94 |
| C=CC(=O)N1CCN2c3c(cnc4cc(-c5c(O)cccc5F)c(Cl)cc34)OC[C@H]2C1 (single isomer, unassigned) [Example 1] | KRasG12C M.S. Binding Mean adduct % | 96 |
| C=CC(=O)N1CCN2c3c(cnc4cc(-c5c(C)ccc6[nH]cnc56)c(Cl)cc34)OC[C@H]2C1 (single isomer, unassigned) [Compound 65] | KRasG12C M.S. Binding Mean adduct % | 95 |

P = C=CC(=O)N1C[C@@H]2COc3cnc4c(C)c(-c5c(O)cccc5F)c(Cl)cc4c3N2C[C@H]1C (single isomer, unassigned)
Q = C=CC(=O)N1CCN2c3c(cnc4c(F)c(-c5c(O)cccc5F)c(Cl)cc34)N(C)C(=O)C2C1 (single isomer, unassigned) [Example 20]
R = C=CC(=O)N1C[C@@H]2C(=O)N(C)c3cnc4c(F)c(-c5c(O)cccc5F)c(Cl)cc4c3N2C[C@H]1C (single isomer, unassigned) [Example 21]
Kindly order the items shown according to KRasG12C M.S. Binding Mean adduct %, from the highest value down. List each label, following the requested order. P, Q, R

---

# Experimental target: KRasG12C (Homo sapiens, UniProt P01116, G12C)
# Construct: biotin (biotinylated); made in house
# Method description: KRasG12C Mass Spectrometry adducting assay
# Assay type: binding
# Setup conditions: 10 μM test compound, 4 μM KRasG12C, 4 hours reaction; single experiment or average of two or more
Assay endpoint: KRasG12C M.S. Binding Mean adduct % (%)

| Molecule | KRasG12C M.S. Binding Mean adduct %, % |
| --- | --- |
| C=CC(=O)N1CCN2c3c(cnc4cc(-c5c(C)ccc6[nH]c(=O)[nH]c56)c(Cl)cc34)OC[C@H]2C1 (single isomer, unassigned) [Compound 71] | 94 |
| C=CC(=O)N1CCN2c3c(cnc4c(OC)c(-c5c(O)cccc5F)c(Cl)cc34)OC[C@H]2C1 (single isomer, unassigned) [Compound 24] | 96 |
| C=CC(=O)N1CCN2c3c(cnc4c(F)c(-c5c(C)ccc6c5C(=O)NC6)c(Cl)cc34)OC[C@H]2C1 (single isomer, unassigned) [Compound 86] | 95 |
| C=CC(=O)N1CCN2c3c(cnc4cc(-c5c(O)cccc5F)c(Cl)cc34)N(C)C(=O)C2(C)C1 (single isomer, unassigned) [Compound 33] | 87 |
| C=CC(=O)N1CCN2c3c(cnc4cc(-c5c(O)cccc5F)c(Cl)cc34)N(CCN(C)C)C[C@H]2C1 [Example 12] | 75 |
| C=CC(=O)N1CCN2c3c(cnc4cc(-c5c(C)ccc6cc[nH]c(=O)c56)c(Cl)cc34)OC[C@H]2C1 (single isomer, unassigned) [Compound 70] | 94 |
| C=CC(=O)N1C[C@@H]2COc3cnc4cc(-c5c(O)cccc5F)c(Cl)cc4c3N2C[C@H]1C [Example 11] | 93 |
| C=CC(=O)N1CCN2c3c(cnc4c(F)c(-c5c(O)cccc5F)c(Cl)cc34)N(C)C(=O)[C@H]2C1 (single isomer, unassigned) [Example 17] | 100 |
| C=CC(=O)N1CCN2c3c(cnc4cc(-c5c(F)ccc6cc[nH]c(=O)c56)c(Cl)cc34)OC[C@H]2C1 (single isomer, unassigned) [Compound 45] | 96 |

Source: patent US10597405B2
